- TESTED_TARGET: FLNA in A7 cell membranes (Homo sapiens, UniProt P21333)
- Sequence (P21333 whole entry): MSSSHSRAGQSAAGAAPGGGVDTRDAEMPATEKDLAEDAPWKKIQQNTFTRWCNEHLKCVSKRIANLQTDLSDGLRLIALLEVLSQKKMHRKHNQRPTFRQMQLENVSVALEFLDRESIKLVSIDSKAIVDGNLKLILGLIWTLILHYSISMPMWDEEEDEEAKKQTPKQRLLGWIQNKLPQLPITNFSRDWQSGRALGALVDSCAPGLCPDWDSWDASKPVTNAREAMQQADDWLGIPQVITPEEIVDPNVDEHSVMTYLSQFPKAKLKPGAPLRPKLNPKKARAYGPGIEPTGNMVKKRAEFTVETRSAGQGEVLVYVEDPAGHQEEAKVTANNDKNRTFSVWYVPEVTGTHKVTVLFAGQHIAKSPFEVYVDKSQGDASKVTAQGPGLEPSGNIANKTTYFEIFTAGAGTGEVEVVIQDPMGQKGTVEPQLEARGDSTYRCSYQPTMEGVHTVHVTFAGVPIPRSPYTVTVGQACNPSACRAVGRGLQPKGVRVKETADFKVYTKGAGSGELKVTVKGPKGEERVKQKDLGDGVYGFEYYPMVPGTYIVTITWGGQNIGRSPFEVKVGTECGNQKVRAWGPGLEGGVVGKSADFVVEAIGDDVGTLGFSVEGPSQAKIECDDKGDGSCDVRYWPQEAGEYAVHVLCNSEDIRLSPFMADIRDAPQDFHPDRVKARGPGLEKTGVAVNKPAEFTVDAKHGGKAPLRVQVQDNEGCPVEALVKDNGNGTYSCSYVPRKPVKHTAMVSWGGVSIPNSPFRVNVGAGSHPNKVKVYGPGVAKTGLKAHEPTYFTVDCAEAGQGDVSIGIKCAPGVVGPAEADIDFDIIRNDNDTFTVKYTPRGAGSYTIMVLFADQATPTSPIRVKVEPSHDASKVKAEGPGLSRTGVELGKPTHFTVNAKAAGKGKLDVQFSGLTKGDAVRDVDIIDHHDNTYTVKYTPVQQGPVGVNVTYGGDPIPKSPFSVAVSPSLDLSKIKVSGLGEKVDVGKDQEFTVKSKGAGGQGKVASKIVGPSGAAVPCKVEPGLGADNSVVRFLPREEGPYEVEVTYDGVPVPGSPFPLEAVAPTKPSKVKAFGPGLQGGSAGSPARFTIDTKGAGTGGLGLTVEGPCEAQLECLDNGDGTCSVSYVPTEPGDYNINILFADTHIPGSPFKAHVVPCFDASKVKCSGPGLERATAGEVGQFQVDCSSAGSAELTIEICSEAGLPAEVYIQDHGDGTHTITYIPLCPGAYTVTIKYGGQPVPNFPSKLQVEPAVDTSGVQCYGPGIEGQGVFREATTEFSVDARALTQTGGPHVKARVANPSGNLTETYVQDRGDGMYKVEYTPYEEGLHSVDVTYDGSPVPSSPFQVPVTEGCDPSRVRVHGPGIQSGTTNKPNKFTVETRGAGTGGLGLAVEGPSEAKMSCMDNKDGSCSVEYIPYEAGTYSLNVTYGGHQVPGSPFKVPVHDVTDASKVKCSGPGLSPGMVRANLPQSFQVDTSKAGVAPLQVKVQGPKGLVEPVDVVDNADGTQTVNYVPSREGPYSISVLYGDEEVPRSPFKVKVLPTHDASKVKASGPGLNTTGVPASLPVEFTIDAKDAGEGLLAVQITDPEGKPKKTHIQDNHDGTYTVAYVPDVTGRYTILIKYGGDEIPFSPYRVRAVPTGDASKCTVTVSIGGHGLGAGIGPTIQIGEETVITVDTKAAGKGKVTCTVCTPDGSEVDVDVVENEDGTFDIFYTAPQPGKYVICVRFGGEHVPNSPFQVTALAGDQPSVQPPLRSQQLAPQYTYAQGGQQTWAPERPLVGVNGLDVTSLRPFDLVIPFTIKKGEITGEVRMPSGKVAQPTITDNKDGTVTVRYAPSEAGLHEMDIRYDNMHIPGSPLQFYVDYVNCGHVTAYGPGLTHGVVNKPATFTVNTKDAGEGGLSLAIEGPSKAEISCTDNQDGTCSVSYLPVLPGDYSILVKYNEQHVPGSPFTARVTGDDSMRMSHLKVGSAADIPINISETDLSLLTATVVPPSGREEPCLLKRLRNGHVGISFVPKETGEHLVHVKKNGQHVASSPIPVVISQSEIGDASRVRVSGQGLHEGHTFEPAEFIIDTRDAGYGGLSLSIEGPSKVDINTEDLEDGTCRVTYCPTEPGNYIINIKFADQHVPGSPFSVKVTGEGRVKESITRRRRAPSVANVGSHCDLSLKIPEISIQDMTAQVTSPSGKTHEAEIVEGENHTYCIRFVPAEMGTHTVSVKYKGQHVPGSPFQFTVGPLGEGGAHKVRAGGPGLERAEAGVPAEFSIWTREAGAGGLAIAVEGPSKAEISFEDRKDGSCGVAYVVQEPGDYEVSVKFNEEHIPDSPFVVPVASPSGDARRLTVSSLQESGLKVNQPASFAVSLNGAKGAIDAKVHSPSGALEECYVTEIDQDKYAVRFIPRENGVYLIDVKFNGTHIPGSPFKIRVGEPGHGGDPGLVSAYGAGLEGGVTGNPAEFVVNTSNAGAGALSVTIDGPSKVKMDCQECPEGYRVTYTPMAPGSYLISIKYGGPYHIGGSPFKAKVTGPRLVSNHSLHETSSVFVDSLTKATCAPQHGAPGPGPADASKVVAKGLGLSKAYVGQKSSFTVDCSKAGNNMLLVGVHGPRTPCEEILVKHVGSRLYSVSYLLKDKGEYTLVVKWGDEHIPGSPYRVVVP
MEASURE_NAME: IC50 (pM)
Give the value, in units of pM, as a plain number.

// lookup IC50 for O=C1CC[C@@]2(O)[C@H]3Cc4ccc(O)c5c4[C@@]2(CCN3CC2CC2)[C@H]1O5 [Naltrexone, naltrexone]
43

---

- Test system: other Go-coupled receptors
- PROTOCOL_NOTES: Stimulation of other Go-coupled receptors
- Assay type: biochemical
- CONDITION_PARAMETERS: 0.1 μM screen
Measured Stimulation of other Go-coupled receptors of individual entries
Your answer should be a plain number; it is taken to be in %.

COc1ccc(S(=O)(=O)N2CCC3(CC2)OCCN3S(=O)(=O)c2ccc(OC)cc2)cc1 [Compound 5] | 11
COc1ccc(C(=O)CC2c3c(cc4c(c3OC)OCO4)CC[N+]2(C)C)c(OC)c1 (stereo not shown) [Compound 7] | 21
COc1cc(CCC(O)CC2c3c(cc4c(c3OC)OCO4)CCN2C)ccc1O (stereo not shown) [Compound 3] | 16

Field: next molecule
Query for other Go-coupled receptors: what Stimulation of other Go-coupled receptors does the record show for C[C@@H]1CCC2[C@]3(C)COC(C)(C)OC3CC[C@@]2(C)C12CCC(CO)(CCO)O2 (stereo partly shown) [Compound 2] ?
11
